biological target: B-Raf kinase (SEQ ID NO: 1) (Homo sapiens, UniProt P15056); construct: GST (N); purchased Sigma; test: Biochemical assay for B-Raf (coupled pyruvate kinase/lactate dehydrogenase); details: 1 mM ATP; read-out: BRAF (inhibition of biochemical activity, IC50)
Sequence (P15056 416-766): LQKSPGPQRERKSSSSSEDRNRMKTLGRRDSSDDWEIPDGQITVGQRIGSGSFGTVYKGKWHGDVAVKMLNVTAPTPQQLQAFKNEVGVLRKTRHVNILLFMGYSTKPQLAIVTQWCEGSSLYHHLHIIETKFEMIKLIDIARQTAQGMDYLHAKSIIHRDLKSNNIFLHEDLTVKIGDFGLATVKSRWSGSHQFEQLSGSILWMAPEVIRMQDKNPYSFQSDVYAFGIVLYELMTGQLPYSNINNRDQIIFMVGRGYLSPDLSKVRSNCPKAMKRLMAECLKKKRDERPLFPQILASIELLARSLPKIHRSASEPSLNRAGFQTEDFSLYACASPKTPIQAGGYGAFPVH
Parameter: IC50. Scope: all listed entries.

- smi: "Cc1ccc(NC(=O)c2cc(Cl)cnn2)cc1-c1ccnc(N2CCOCC2)n1"
  IC50: "1 to 10 µM"
- smi: "Cc1ccc(NC(=O)c2cc(C3CC3)cnn2)cc1-c1nccc(N2CCOCC2)n1"
  IC50: "1 to 10 µM"
- smi: "Cc1ccc(NC(=O)c2cc(C3CC3)cnn2)cc1-c1ccnc(N2CCOCC2)n1"
  IC50: "1 to 10 µM"
- smi: "Cc1ccc(NC(=O)c2cc(C(F)(F)F)cnn2)cc1-c1cc(N[C@H](C)CO)nc(N2CC3CC(C2)O3)c1"
  IC50: "0.1 to 0.5 µM"
- smi: "Cc1ccc(NC(=O)c2cc(C(C)C)cnn2)cc1-c1cncc(N2CCOCC2)n1"
  IC50: "0.1 to 0.5 µM"
- smi: "Cc1ccc(NC(=O)c2cnc(N)nc2)cc1-c1cc(N[C@H](C)CO)nc(N2CCOCC2)c1"
  IC50: "1 to 10 µM"
- smi: "Cc1ccc(NC(=O)c2cc(C(F)(F)F)cnn2)cc1-c1cc(N2CCOCC2)cnn1"
  IC50: "1 to 10 µM"

---

target: B-Raf kinase (SEQ ID NO: 1) (Homo sapiens, UniProt P15056); construct: GST (N); purchased Sigma; assay: Biochemical assay for B-Raf (coupled pyruvate kinase/lactate dehydrogenase); settings: 1 mM ATP; read-out: BRAF (inhibition of biochemical activity, IC50)
pIC50: −log10 of the molar value.
Parameter: pIC50. Scope: all listed entries.

- smi: "Cc1ccc(NC(=O)c2cc(C(F)(F)F)cnn2)cc1-c1ccnc(N2CCOCC2)n1"
  pIC50: "5.00 to 6.00"
- smi: "Cc1ccc(NC(=O)c2cc(C(F)(F)F)cnn2)cc1-c1cc(N2CCOCC2)nc(N[C@H](C)CO)n1"
  pIC50: "6.30 to 7.00"
- smi: "Cc1ccc(NC(=O)c2cncc(C(F)(F)F)c2)cc1-c1cc(OCCO)nc(N2CCOCC2)c1"
  pIC50: "> 7.00"
- smi: "Cc1ccc(NC(=O)c2cc(Cl)cnn2)cc1-c1ccnc(N2CCOCC2)c1"
  pIC50: "5.00 to 6.00"

---

tested on: MiaPaca-2 cells; test: MiaPaca-2 cell proliferation assay; type: cell-based; conditions: Homo sapiens, MIA PaCa-2; 67-72 h incubation, resazurin; read-out: MiaPaca-2 (inhibition of cell proliferation, IC50)

- smi: "Cc1ccc(NC(=O)c2cc(C(F)(F)F)cnn2)cc1-c1ccnc(N2CCOCC2)c1"
  subject-of-test: "MiaPaca-2 cells"
  IC50: "< 100 nM"
- smi: "Cc1ccc(NC(=O)c2cc(C(C)C)cnn2)cc1-c1cncc(N2CCOCC2)c1"
  subject-of-test: "MiaPaca-2 cells"
  IC50: "1000 to 10000 nM"
- smi: "Cc1ccc(NC(=O)c2cc(C3CC3)cnn2)cc1-c1cncc(N2CCOCC2)c1"
  subject-of-test: "MiaPaca-2 cells"
  IC50: "100 to 500 nM"
- smi: "Cc1ccc(NC(=O)c2cc(C3CC3)cnn2)cc1-c1ccnc(N2C[C@@H](C)O[C@@H](C)C2)c1"
  subject-of-test: "MiaPaca-2 cells"
  IC50: "1000 to 10000 nM"
- smi: "Cc1ccc(NC(=O)c2cc(C(C)(F)F)cnn2)cc1-c1cc(NCCO)nc(N2CCOCC2)c1"
  subject-of-test: "MiaPaca-2 cells"
  IC50: "< 100 nM"
- smi: "Cc1ccc(NC(=O)c2cncc(C3CC3)n2)cc1-c1cc(N[C@H](C)CO)nc(N2CCOCC2)c1"
  subject-of-test: "MiaPaca-2 cells"
  IC50: "1000 to 10000 nM"
- smi: "Cc1ccc(NC(=O)c2cc(Cl)cnn2)cc1-c1cncc(N2CCOCC2)n1"
  subject-of-test: "MiaPaca-2 cells"
  IC50: "1000 to 10000 nM"
- smi: "C=C(C)c1cncc(C(=O)Nc2ccc(C)c(-c3cc(N[C@H](C)CO)nc(N4CCOCC4)c3)c2)n1"
  subject-of-test: "MiaPaca-2 cells"
  IC50: "1000 to 10000 nM"
- smi: "Cc1ccc(NC(=O)c2cc(C(F)(F)F)cnn2)cc1-c1ccnc(N2C[C@@H](C)O[C@@H](C)C2)c1"
  subject-of-test: "MiaPaca-2 cells"
  IC50: "1000 to 10000 nM"
- smi: "Cc1ccc(NC(=O)c2cc(C(N)=O)cnn2)cc1-c1cc(N[C@H](C)CO)nc(N2CCOCC2)c1"
  subject-of-test: "MiaPaca-2 cells"
  IC50: "100 to 500 nM"
- smi: "Cc1ccc(NC(=O)c2cc(Cl)cnn2)cc1-c1ccnc(N2CCOCC2)c1"
  subject-of-test: "MiaPaca-2 cells"
  IC50: "1000 to 10000 nM"
- smi: "Cc1ccc(NC(=O)c2cnc(C(F)(F)F)nc2)cc1-c1cc(OCCO)nc(N2CCOCC2)c1"
  subject-of-test: "MiaPaca-2 cells"
  IC50: "100 to 500 nM"
- smi: "Cc1ccc(NC(=O)c2cc(C3CC3)cnn2)cc1-c1cc(OCCO)nc(N2CCOCC2)c1"
  subject-of-test: "MiaPaca-2 cells"
  IC50: "< 100 nM"
- smi: "Cc1ccc(NC(=O)c2cc(C(F)(F)F)cnn2)cc1-c1ccnc(N2CC3CCC(C2)O3)c1"
  subject-of-test: "MiaPaca-2 cells"
  IC50: "< 100 nM"
- smi: "Cc1ccc(NC(=O)c2cc(C(F)(F)F)cnn2)cc1-c1cc(N2CCOCC2)nc(OCCO)n1"
  subject-of-test: "MiaPaca-2 cells"
  IC50: "< 100 nM"
- smi: "Cc1ccc(NC(=O)c2cc(C(F)(F)F)cnn2)cc1-c1nccc(N2CCOCC2)n1"
  subject-of-test: "MiaPaca-2 cells"
  IC50: "1000 to 10000 nM"

---

biological target: C-Raf kinase (SEQ ID NO: 2) (Homo sapiens, UniProt P04049, Y340D/Y341D); construct: C-Raf residues 306-end; Y340D, Y341D with N-; GST (N); purchased Sigma; assay: Biochemical assay for C-Raf (coupled pyruvate kinase/lactate dehydrogenase); details: 1 mM ATP; read-out: CRAF (inhibition of biochemical activity, IC50)
Sequence (P04049 307-648 Y340D/Y341D): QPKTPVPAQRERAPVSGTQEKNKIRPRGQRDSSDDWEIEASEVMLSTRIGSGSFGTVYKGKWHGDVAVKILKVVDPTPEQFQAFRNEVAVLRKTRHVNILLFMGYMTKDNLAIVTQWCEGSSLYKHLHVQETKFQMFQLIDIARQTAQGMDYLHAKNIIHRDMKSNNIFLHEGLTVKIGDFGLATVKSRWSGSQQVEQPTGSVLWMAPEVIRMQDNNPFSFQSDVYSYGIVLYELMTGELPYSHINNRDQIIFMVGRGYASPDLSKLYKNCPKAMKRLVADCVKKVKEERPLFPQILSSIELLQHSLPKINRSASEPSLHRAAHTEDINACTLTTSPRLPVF
Parameter: IC50. Scope: all listed entries.

- molecule: "CNc1cc(-c2cc(NC(=O)c3cc(C(F)(F)F)cnn3)ccc2C)nc(N2C[C@H]3C[C@@H]2CO3)n1 [Example 94]"
  IC50: "1000 to 10000 nM"
- molecule: "Cc1ccc(NC(=O)c2cc(C3CC3)cnn2)cc1-c1cc(N2CCOCC2)ncn1 [Example 40]"
  IC50: "500 to 1000 nM"
- molecule: "Cc1ccc(NC(=O)c2cc(C(F)(F)F)cnn2)cc1-c1ccnc(N2CCOC(C(F)F)C2)c1 (centres unmarked) [Example 26]"
  IC50: "100 to 500 nM"
- molecule: "Cc1ccc(NC(=O)c2cc(C(F)(F)F)cnn2)cc1-c1cc(N[C@H](C)CO)nc(N2C[C@H]3C[C@@H]2CO3)c1 [Example 93]"
  IC50: "100 to 500 nM"
- molecule: "Cc1ccc(NC(=O)c2cc(C(F)(F)F)cnn2)cc1-c1ccnc(N2CCOCC2)c1 [Example 1]"
  IC50: "100 to 500 nM"
